Measured values drawn from ChEMBL document CHEMBL3751778 for this set.

test: Antioxidant activity assessed as DPPH radical scavenging activity after 30 mins by ELISA reader analysis; format: physicochemical
API: label(entry) gives Fulfilled if the entry's IC50 is strictly smaller than 20 µM; on equality or larger values it gives Not fulfilled.

Take a look at these entries with their results.
Record "CCCCOc1cc2oc(-c3ccccc3)cc(=O)c2c(O)c1O" : is its IC50 strictly below 20 µM?
Fulfilled

Also "O=C1O[C@H]([C@@H](O)CO)C(O)=C1O" , if possible.
Not fulfilled

Also Cc1c(C)c2c(c(C)c1O)CCC(C)(C(=O)O)O2 (centres undefined) , if possible.
Not fulfilled

Also "CC(C)=CCOc1cc2oc(-c3ccccc3)cc(=O)c2c(O)c1O" , if possible.
Not fulfilled

Also "O=c1c(O)c(-c2ccc(O)c(O)c2)oc2cc(O)cc(O)c12" , if possible.
Fulfilled

---
Record "COc1cc2oc(-c3ccccc3)cc(=O)c2c(O)c1O" : is its IC50 strictly below 20 µM?
Not fulfilled

Also "CC(C)=CCC/C(C)=C/CC/C(C)=C/COc1cc2oc(-c3ccccc3)cc(=O)c2c(O)c1O" , if possible.
Not fulfilled

Also "CC(C)=CCC/C(C)=C/COc1cc2oc(-c3ccccc3)cc(=O)c2c(O)c1O" , if possible.
Not fulfilled

Also "O=c1cc(-c2ccccc2)oc2cc(O)c(O)c(O)c12" , if possible.
Fulfilled
